Test system: MKN45 tumor cells
Assay: FACS affinity of murine-derived antibodies to MKN45 tumor cells
Format: binding, human
Catalogue of MKN45 (EC50 = ng/ml) readings, one per entry.
The reply should contain only the number, in ng/mL.

41F5B2: murine-derived anti-cMET antibody of Table 1; probably clone 51D5B2 (VL SEQ ID NO: 7, VH SEQ ID NO: 8) (antibody, V domains shown) VH: EVRLEDSGGGFVQPGGSMKISCVASGFTFSNYWMNWVRQSPEKGLEWVAQIRLKSLNYATHYAESVKGRFTISRDDSRNSVYLQMNNLRAEDAGIYYCTEEGFAYWGRGTLVTVSA VL: IVMTQSPASLPVSLGQRATISCRASESVDDYGVSFVNWFQQKPGQPPKLLIYTASVQESGVPARFSGSGSGTDFRLNIHPLEEDDTAMYFCQQSKEIPPTFGGGTKLEIK : 348.5
45A5G10: murine-derived anti-cMET monoclonal antibody; VL SEQ ID NO: 1, VH SEQ ID NO: 2 (antibody, V domains shown) VH: EVRLEESGGGFVQPGGSMKISCVASGFTFSNYWMNWVRQSPEKGLEWVAQIRLKSLNYATHYAESVKGRFTISRDDSRNSVYLQMNNLRAEDAGIYYCTEEGFAYWGRGTLVTVSA VL: IVMTQSPASLPVSLGQRATISCRASESVDDYGVSFVNWFQQKPGQPPKLLIYTASVQESGVPARFSGSGSGTDFSLNIHPLEEDDTAMYFCQQSKEIPPTFGGGTKLEIK : 41.25
44H10E8: murine-derived anti-cMET monoclonal antibody; VL SEQ ID NO: 5, VH SEQ ID NO: 6 (antibody, V domains shown) VH: QVHLQQSGAELARPGASVKMSCKASGYTFISYTIHWVKQSPGQGLEWIGYINPSSGYAKNNPKFQDKATLTADTSSTTAYIQLSSLTSEDSAVYYCTRPYGDFVDWYFDVWGTGTTVTVSS VL: NIMMTQSPSSLAVSAGEKVTMNCKSSQSVLYFSNQKNCLAWYQQKPGQSPKLLIYWASTRESGVPDRFTGSGSGTDFTLTISSVQADDLAVYYCQQYLSSLTFGAGTKLELK : 149.7

Incoming: State the recorded MKN45 (EC50 = ng/ml) for this entry: 55A10G6: murine-derived anti-cMET monoclonal antibody; VL SEQ ID NO: 3, VH SEQ ID NO: 4 (antibody, V domains shown) VH: QIQLQQSGPELVKPGASVKISCKASGYTFTDYYLNWVRQRPGQGLEWIGWIFPGSGNTKYIEKFKGKATLTVDTSSSTAYMLLSSLTSEDSAVYFCAGGDYGGFTYWGQGTLVAVSA VL: DIQMTQSPPSLSASVGETVTITCGASENIYGALNWYQRKQGKSPQLLIYGATNLAAGMSSRFSGSGSGRQFSLKISSLHPDDVATYYCQNVLSEPLTFGAGTKLELK
Outgoing: 63.08
